logP vs 2: at or above is t, below is f.

In plain terms: is recorded logP at least 2 for COc1n[n+]([O-])c2ccccc2[n+]1[O-] ?
f

Could you verify whether the entry CCC(C(N)=O)c1ccc(-n2sc3ccccc3c2=O)cc1 (configuration not stated) shows logP of no less than 2?
t

Hello, I need to know if COc1cccc(OC)c1C(=O)Nc1nnc(-c2ccc(Cl)cc2)s1 has measured logP not below 2. Thanks!
t

Can COc1cccc(OC)c1C(=O)Nc1nnc(-c2ccc(F)cc2)s1 be said to have logP at or above 2?
t

Assess whether reported logP for COc1ccc2cc(CC(=O)OCC(=O)N3CCOCC3)ccc2c1 sits at 2 or higher.
t

Assess whether reported logP for C#CCC(C)OC(=O)Nc1ccc(OCC)c(OCC)c1 (configuration not stated) sits at 2 or higher.
t

State whether the measured logP reaches 2, counting equality as reaching it, for COCCNC(=O)Cn1ccnc1[N+](=O)[O-]
f

Entry C=CCN1CCN(CC=C)C1=S : is its logP no less than 2?
f

Textbook exercise: given the entry C#CCOc1cc(NC=NOCC=C)cc(Cl)c1OCC#C , state whether its logP is greater than or equal to 2.
t

Confirm if logP reported for the molecule Nc1n[n+]([O-])c2cc(OCC(O)CO)ccc2[n+]1[O-] (configuration not stated) is 2 or above.
f

Hello, I need to know if C#CCOc1cc(NC=NOCOC)cc(Cl)c1OCC#C has measured logP not below 2. Thanks!
t

###

Please provide measured logP for the entries that follow.
No unit in the answer, please; the number alone is enough.

Form field logP, entry ClC1=C(Cl)C2C(C1Cl)C1(Cl)C(Cl)C(Cl)C2(Cl)C1(Cl)Cl (stereo not drawn) : 6.08

So, C=CC(CC)OC(=O)Nc1ccc(OCC)c(OCC)c1 (stereo not drawn) ? Its logP was 3.42

# compound C=CCOc1ccc2c(c1)[n+]([O-])nc(N)[n+]2[O-] ; its logP = 0.76

Sample CCOc1cc[n+]([O-])cc1 ; logP observed: -0.53

Note to self: logP recorded for CCc1ccc(CO)cc1 was 2.27

logP reading for CN(C)C(=O)Oc1ccc(F)cc1 : 1.58

logP reported for this compound COc1ccc2cc(CC(=O)O)ccc2c1 : 2.82

Query CNC(=O)N(CCCCC(NC(C)=O)C(=O)NCc1ccccc1)Cc1ccccc1 (stereo not drawn) yields logP of 1.99

Record CCCc1ccc(CO)cc1 , field logP: 2.67

get_value(item= CC(=O)NC(CCCCNC(=O)NCCCl)C(=O)NCc1ccccc1 (stereo not drawn) , readout=logP) returns 0.61

logP reading for CCCN(CCCCC(NC(C)=O)C(=O)NCc1ccccc1)C(=O)NC (stereo not drawn) : 1.6

Form field logP, entry C1SCC2=NOS3=C2C1=NO3 : 1.2

logP for [O-][n+]1nc2ccccc2c2ccccc21 is 2.24

###

measuredParameter: logP
No unit in the answer, please; the number alone is enough.

Short answer for COc1cccc(OC)c1C(=O)Nc1nnc(-c2ccccc2)s1 : logP was 3.5

Record CNC(=O)N(CCCC(NC(C)=O)C(=O)NCc1ccccc1)Cc1ccccc1 (stereo unspecified) , field logP: 1.86

Item: CCCCCCCCCCn1c(N)c(N)c(=O)[nH]c1=O | logP: 3.04

// logP value for C=CCNC(=O)N(CCC)CCCCC(NC(C)=O)C(=O)NCc1ccccc1 (stereo unspecified) : 1.75

Recorded result, C#CCOc1cc(NC=NOCC)cc(Cl)c1OCC#C , logP: 2.6

Reported logP ( CC(=O)c1ccc(OC(=O)N(C)C)cc1 ) = 1.27

###

Could you mark each record yes (1) if its logP falls strictly under 2, and no (0) if it equals or exceeds it?

Lab note: logP threshold 2. Does this molecule come in strictly under it? CCCC(=O)Oc1ccccc1C(=O)O
no (0)

For Cn1c(N)c(N)c(=O)[nH]c1=O , is the recorded logP below the cut-off of 2?
yes (1)

Say whether its logP is strictly beneath 2. Entry: C=CCN1CCCN(CC=C)C1=S
no (0)

Is logP of O=C1NC(=O)C(c2ccccc2)(c2ccccc2)N1S(=O)(=O)c1ccc(Cl)cc1 strictly below 2?
no (0)

Field: below-cutoff. Rule: recorded logP strictly less than 2. Subject: CC1CC2=NOS3=C2C(=NO3)C1
yes (1)

Say whether its logP is strictly beneath 2. Entry: CCOC(=O)C(C)c1ccc(-n2sc3ccccc3c2=O)cc1 (configuration not stated)
no (0)

In plain terms, does CN(C)C(=O)Oc1cccc(F)c1 come in under 2 for logP?
yes (1)

logP strictly < 2 for this molecule? COC(=O)NC(=S)Nc1ccccc1N
yes (1)

Is logP strictly under 2 for the entry Clc1ccc(-c2ccc(Cl)c(Cl)c2)cc1 ?
no (0)

Given CCCCc1ccc(CO)cc1 , is recorded logP strictly lower than 2?
no (0)

Lab note: confirm whether the reported logP for this molecule is below 2, equality not counting. molecule: CN(C)C(=O)Oc1cccc(C#N)c1
yes (1)

Please let me know if O=C1NC(Cc2c[nH]c3ccccc23)C(=O)NC1Cc1ccc(O)cc1 (configuration not stated) shows logP below 2.
yes (1)

Quick check: logP of C=CCN(N=O)C(=O)N(CCC)CCCC(NC(C)=O)C(=O)NCc1ccccc1 (configuration not stated) under 2?
no (0)

Is logP of CC(C)(C)c1ccc(CC2CCCC2(O)Cn2cncn2)cc1 (configuration not stated) strictly below 2?
no (0)

Hi there! Is logP for CN(C)C(=O)Oc1ccc(Br)cc1 below 2, do you know?
no (0)

is_below(logP, 2) for Nc1ncn(C2CC(O)C(CO)O2)c(=O)n1 (configuration not stated) ?
yes (1)

Given the entry [O-][n+]1ccc(Cl)cc1 , would its reported logP be below 2?
yes (1)

Hello, is logP of the following molecule strictly smaller than 2? Nc1n[n+]([O-])c2ccc(Cl)cc2[n+]1[O-]
yes (1)

Quick check: does CCOC(=O)CCCOc1ccc(-n2sc3ccccc3c2=O)cc1 have logP under 2?
no (0)

logP strictly < 2 for this molecule? C#CCNC(=O)NCCCC(NC(C)=O)C(=O)NCc1ccccc1 (configuration not stated)
yes (1)

hey, is logP for COc1ccc2cc(CC(=O)OCC(=O)N(CCO)CCO)ccc2c1 lower than 2 or not?
yes (1)

# TODO verify logP < 2 strictly for this molecule: COC1N(C2CC(N=[N+]=[N-])C(CO)O2)C(=O)NC(=O)C1(C)I (configuration not stated)
yes (1)

For this molecule, is logP lower than 2? C#CC(CC)OC(=O)Nc1ccc(OCC)c(OCC)c1 (configuration not stated)
no (0)

Field: below-cutoff. Rule: recorded logP strictly less than 2. Subject: NC(=O)Cc1ccc(-n2sc3ccccc3c2=O)cc1
yes (1)

Below 2 on logP? Entry CNC(=O)ON=C(CSC)C(C)(C)C
no (0)

Dear reviewer, please state whether CC(C)c1ccc(OC(=O)N(C)C)cc1 has logP strictly beneath 2.
no (0)

Does C=CCN(CC=C)C(=O)COC(=O)Cc1ccc2cc(OC)ccc2c1 have logP strictly under 2?
no (0)

logP under 2? Item: COc1ccc2c(c1OC)-c1ccc(OC)c(=O)cc1C(NC(C)=O)CC2 (configuration not stated)
yes (1)

Identify whether the molecule COc1ccccc1NC(=O)OC1CCCCC1CN(C)C (configuration not stated) records logP below 2.
no (0)

Dear reviewer, please state whether CCCN(CCCl)c1c([N+](=O)[O-])cc(C(F)(F)F)cc1[N+](=O)[O-] has logP strictly beneath 2.
no (0)

hey, is logP for COc1ccc2cc(CC(=O)OCC(=O)NC3CCCCC3)ccc2c1 lower than 2 or not?
no (0)

# strict comparison: is reported logP < 2? input = O=[N+]([O-])C=C1CCCN1Cc1ccc(Cl)nc1
yes (1)

Answer whether the molecule CCOC(=O)C(CC)c1ccc(-n2sc3ccccc3c2=O)cc1 (configuration not stated) has logP strictly less than 2
no (0)

In plain terms, does CC(=O)c1cc[n+]([O-])cc1 come in under 2 for logP?
yes (1)

Quick check: logP of Cc1ccnc(N)c1 under 2?
yes (1)

Say whether its logP is strictly beneath 2. Entry: O=S1CC2=NOS3=C2C(=NO3)C1
yes (1)

Find out if reported logP for OC1(Cn2cncn2)CCCC1Cc1ccc(Cl)cc1 (configuration not stated) is less than 2
no (0)

Input COc1ccc2c(c1)[n+]([O-])nc(N)[n+]2[O-] ; condition: logP strictly below 2. Does it hold?
yes (1)

Problem: For the molecule COc1ccc2cc(CC(=O)OCC(=O)N3CCCC3)ccc2c1 , is logP under 2?
no (0)

Say whether its logP is strictly beneath 2. Entry: COC(=O)C(C)c1ccc(-n2sc3ccccc3c2=O)cc1 (configuration not stated)
no (0)

Is it true that logP reported for CCCCNC(=O)COC(=O)Cc1ccc2cc(OC)ccc2c1 is less than 2?
no (0)

Hi there! Is logP for COc1ccc2cc(CC(=O)OCC(=O)N(C)C)ccc2c1 below 2, do you know?
no (0)

Here's an entry: CCC(=O)Oc1ccccc1C(=O)O . Is its logP below 2?
yes (1)

Strictly below 2: is that where logP of O=C1NC(=O)C(c2ccccc2)(c2ccccc2)N1S(=O)(=O)c1ccc([N+](=O)[O-])cc1 sits?
no (0)

# strict comparison: is reported logP < 2? input = C=CCC(C)OC(=O)Nc1ccc(OCC)c(OCC)c1 (configuration not stated)
no (0)

Please state whether logP is below 2 for C=CCNC(=O)NCCCCC(NC(C)=O)C(=O)NCc1ccccc1 (configuration not stated)
yes (1)

For CCCOc1ccccc1NC(=O)OC1CCCCC1CN(C)C (configuration not stated) , is the recorded logP below the cut-off of 2?
no (0)

A record lists C#CCOc1ccc(NC=NOC)cc1OCC#C . Is its logP below 2?
yes (1)

Check if logP falls below 2 for CCCCCCn1c(N)c(N)c(=O)[nH]c1=O .
yes (1)

Check if logP falls below 2 for CNC(=O)COC(=O)Cc1ccc2cc(OC)ccc2c1 .
no (0)

Would you kindly verify if logP of CC(=O)CC(=O)Nc1n[n+]([O-])c2ccccc2[n+]1[O-] is strictly less than 2?
yes (1)

logP strictly < 2 for this molecule? CCC(C)c1ccc(OC(=O)N(C)C)cc1 (configuration not stated)
no (0)
